TESTED_TARGET: UniProtKB P35368
Sequence (P35368 whole entry): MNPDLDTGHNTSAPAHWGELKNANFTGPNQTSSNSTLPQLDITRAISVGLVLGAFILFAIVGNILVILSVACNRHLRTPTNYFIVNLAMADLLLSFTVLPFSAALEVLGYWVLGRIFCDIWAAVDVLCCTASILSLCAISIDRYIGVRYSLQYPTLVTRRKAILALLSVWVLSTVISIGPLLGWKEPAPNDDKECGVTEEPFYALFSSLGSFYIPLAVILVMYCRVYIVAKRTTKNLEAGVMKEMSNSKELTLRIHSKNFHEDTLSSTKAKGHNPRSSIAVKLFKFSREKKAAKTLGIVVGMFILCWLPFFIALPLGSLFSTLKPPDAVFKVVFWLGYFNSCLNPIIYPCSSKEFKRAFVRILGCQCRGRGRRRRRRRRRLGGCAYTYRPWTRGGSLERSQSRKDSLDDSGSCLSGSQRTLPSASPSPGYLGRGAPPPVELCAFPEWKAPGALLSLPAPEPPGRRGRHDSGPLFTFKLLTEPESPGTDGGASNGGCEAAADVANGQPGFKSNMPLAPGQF
ASSAY_OVERVIEW: Radioligand binding, adrenergic α1B (Protocol Group B)
Parameters: purchased Milipore (Millipore)
PARTICULARS: 0.3 μM compound; Protocol Group B; 0.3 µM
Assignment: determine reported Percentage inhibition of ligand binding, Adrenergic α1B (0.3 μM) for the given compounds.
Please provide the amount together with its unit, number first.

Return Percentage inhibition of ligand binding, Adrenergic α1B (0.3 μM) measured with UniProtKB P35368 given this compound: CC(O)(Cn1c2c(c3cc(F)cc(Cl)c31)C1CCCN1CC2)c1ccncc1 (single isomer, unassigned) [88b] 33%

Return Percentage inhibition of ligand binding, Adrenergic α1B (0.3 μM) measured with UniProtKB P35368 given this compound: Cc1ccc2c(c1)c1c(n2CC(C)(O)c2cccnc2)CC2CCCN2C1 (single isomer, unassigned) [38c] 23%

Return Percentage inhibition of ligand binding, Adrenergic α1B (0.3 μM) measured with UniProtKB P35368 given this compound: Cc1cc2c3c(n(CC(C)(O)c4ccncc4)c2cc1Cl)CCN1CCCC31 (single isomer, unassigned) [50b] 93%

Return Percentage inhibition of ligand binding, Adrenergic α1B (0.3 μM) measured with UniProtKB P35368 given this compound: Cc1ccc2c(c1)c1c(n2CC(C)(O)c2ccc(N(C)C)nc2)CCN(C)C1 (stereo not shown) [compound 39] 34%
